Listing of recorded pKi by entry.
# Assay Remarks: Competitive inhibition of human placental beta-N-acetylglucosaminidase using p-nitrophenyl-N-acetyl-beta-D-glucosamide as substrate at pH 5.5 incubated for 10 to 30 mins by Linerweaver-Burk plot/double reciprocal plot analysis
pKi: −log10 of the molar value.

[
  {
    "Smi": "CCCCNC(=S)N1C[C@H](NC(C)=O)[C@H](O)[C@H](O)[C@H]1CO",
    "pKi": 3.93
  },
  {
    "Smi": "CC(=O)N[C@H]1CN[C@H](CO)[C@@H](O)[C@H]1O",
    "pKi": 5.25
  },
  {
    "Smi": "CC(=O)N[C@H]1CN(C(=S)NCc2ccccc2)[C@H](CO)[C@@H](O)[C@H]1O",
    "pKi": 5.07
  },
  {
    "Smi": "CCCCCCCC/N=C1\\SC[C@@H]2[C@@H](O)[C@@H](O)[C@@H](NC(C)=O)CN12",
    "pKi": 6.22
  },
  {
    "Smi": "CCCCCCCCNC(=S)N1C[C@H](NC(C)=O)[C@H](O)[C@H](O)[C@H]1CO",
    "pKi": 3.04
  },
  {
    "Smi": "CCCC/N=C1\\SC[C@@H]2[C@@H](O)[C@@H](O)[C@@H](NC(C)=O)CN12",
    "pKi": 5.31
  },
  {
    "Smi": "CC(=O)N[C@H]1CN2/C(=N/c3ccccc3)SC[C@@H]2[C@@H](O)[C@H]1O",
    "pKi": 4.57
  },
  {
    "Smi": "CC(=O)N[C@H]1CN2/C(=N/Cc3ccccc3)SC[C@@H]2[C@@H](O)[C@H]1O",
    "pKi": 5.31
  }
]

* * *

Listing of recorded pKi by entry.
# Assay Remarks: Non-competitive inhibition of bovine kidney beta-N-acetylglucosaminidase using p-nitrophenyl-N-acetyl-beta-D-glucosamide as substrate at pH 5.5 incubated for 10 to 30 mins by Linerweaver-Burk plot/double reciprocal plot analysis
# Design: species or system Bos taurus
pKi: −log10 of the molar value.

[
  {
    "Smi": "CC(=O)N[C@H]1CN2/C(=N/c3ccccc3)SC[C@@H]2[C@@H](O)[C@H]1O",
    "pKi": 4.42
  },
  {
    "Smi": "CCCCCCCC/N=C1\\SC[C@@H]2[C@@H](O)[C@@H](O)[C@@H](NC(C)=O)CN12",
    "pKi": 6.19
  },
  {
    "Smi": "CC(=O)N[C@H]1CN2/C(=N/Cc3ccccc3)SC[C@@H]2[C@@H](O)[C@H]1O",
    "pKi": 4.96
  },
  {
    "Smi": "CC(=O)N[C@H]1CN[C@H](CO)[C@@H](O)[C@H]1O",
    "pKi": 5.59
  },
  {
    "Smi": "CCCCNC(=S)N1C[C@H](NC(C)=O)[C@H](O)[C@H](O)[C@H]1CO",
    "pKi": 4.06
  },
  {
    "Smi": "CC(=O)N[C@H]1CN(C(=S)NCc2ccccc2)[C@H](CO)[C@@H](O)[C@H]1O",
    "pKi": 5.23
  },
  {
    "Smi": "CCCC/N=C1\\SC[C@@H]2[C@@H](O)[C@@H](O)[C@@H](NC(C)=O)CN12",
    "pKi": 5.54
  }
]

* * *

# Assay Remarks: Non-competitive inhibition of jack bean beta-N-acetylglucosaminidase using p-nitrophenyl-N-acetyl-beta-D-glucosamide as substrate at pH 5.5 incubated for 10 to 30 mins by Linerweaver-Burk plot/double reciprocal plot analysis
# Parameters: species or system Canavalia ensiformis
pKi: −log10 of the molar value.
I would appreciate it if you labelled entries TRUE when pKi is 5 or higher, otherwise FALSE.

[
  {
    "Smi": "CCCCNC(=S)N1C[C@H](NC(C)=O)[C@H](O)[C@H](O)[C@H]1CO",
    "Classification": "FALSE"
  },
  {
    "Smi": "CCCCCCCCNC(=S)N1C[C@H](NC(C)=O)[C@H](O)[C@H](O)[C@H]1CO",
    "Classification": "FALSE"
  },
  {
    "Smi": "CCCC/N=C1\\SC[C@@H]2[C@@H](O)[C@@H](O)[C@@H](NC(C)=O)CN12",
    "Classification": "FALSE"
  },
  {
    "Smi": "CC(=O)N[C@H]1CN2/C(=N/c3ccccc3)SC[C@@H]2[C@@H](O)[C@H]1O",
    "Classification": "FALSE"
  },
  {
    "Smi": "CC(=O)N[C@H]1CN[C@H](CO)[C@@H](O)[C@H]1O",
    "Classification": "TRUE"
  },
  {
    "Smi": "CCCCCCCC/N=C1\\SC[C@@H]2[C@@H](O)[C@@H](O)[C@@H](NC(C)=O)CN12",
    "Classification": "TRUE"
  }
]
